EXPERIMENT: Cytotoxicity against wild type mouse BA/F3 cells
Type: cell-based
CONDITION PARAMETERS: BaF3
QUANTITY MEASURED: pEC50
Answers are plain numbers, as −log10 of the molar value.

CCN1CCN(Cc2ccc(NC(=O)c3cccc(-c4ccc5nc(NC(=O)C6CC6)sc5n4)c3)cc2C(F)(F)F)CC1 = 5.51

Can you give me pEC50 for all of these, one by one?
1. Cc1cn(-c2cc(NC(=O)c3ccc(C)c(-c4ccc5nc(NC(=O)C6CC6)sc5n4)c3)cc(C(F)(F)F)c2)cn1
2. O=C(Nc1ccc(N2CCNCC2)c(C(F)(F)F)c1)c1cccc(-c2ccc3nc(NC(=O)C4CC4)sc3n2)c1

1. 5.33
2. 5.64

Data provenance: ChEMBL document CHEMBL2146457
